Item-by-item account of IC50
- Tested on: DMS-114 (FGFR1 overexpression) cells
- Test Details: cell proliferation assay (CellTiterGlo), DMS-114 cells
- Type: cell-based
- Condition Context: Homo sapiens, DMS-114, 72 h

Some solved entries appear below for comparison.
INSERT INTO results (compound, endpoint_result) VALUES
  ('Cc1nc2ccc(Oc3ccc4ncc(-c5cnn(CC6(NS(C)(=O)=O)CC6)c5)nc4c3Cl)cc2[nH]1', '≥ 400 nM'),
  ('Cc1nc2ccc(Oc3ccc4ncc(-c5cnn(CC6CC(N(C)C)C6)c5)nc4c3Cl)cc2[nH]1 (stereo not shown)', '≥ 400 nM'),
  ('Cc1nc2ccc(Oc3ccc4ncc(-c5cnn(C6CCN(c7cncc(F)c7)CC6)c5)nc4c3Cl)cc2[nH]1', '≥ 400 nM');

Req: Reported IC50, compound `Cc1nc2ccc(Oc3ccc4ncc(-c5cnn(C6CCNCC6)c5C)nc4c3Cl)cc2[nH]1` : ____
Resp: ≥ 400 nM

Req: Reported IC50, compound `Cc1nc2ccc(Oc3ccc4ncc(-c5cnn([C@H]6CCN(C7COC7)C[C@@H]6F)c5)nc4c3C)cc2[nH]1` : ____
Resp: 100 to 400 nM

Req: Reported IC50, compound `Cc1nc2ccc(Oc3ccc4ncc(-c5cnn([C@H]6C[C@@](C)(O)C6)c5)nc4c3Cl)c(F)c2[nH]1` : ____
Resp: 20 to 100 nM

Req: Reported IC50, compound `Cc1nc2ccc(Oc3ccc4ncc(-c5cnn(C[C@H]6CCS(=O)(=O)C6)c5)nc4c3Cl)cc2[nH]1` : ____
Resp: 100 to 400 nM

----------
- Test system: DMS-114 (FGFR1 overexpression) cells
- Test Details: cell proliferation assay (CellTiterGlo), DMS-114 cells
- Assay type: cell-based
- Condition Context: Homo sapiens, DMS-114, 72 h
- Experimental: In some embodiments, the biological assay assess the ability of the compounds to inhibit cell proliferation. In some embodiments, cells (e.g., SNU-16 (FGFR2-amplification) cells) may be suspended and dispensed in plates. […] In some embodiments, to determine the IC50 values, the vehicle-treated cells were normalized as viable cells and the growth was analyzed using a software (e.g., the CDD Vault software (Collaborative Drug Discovery, Burlingame, CA)).
pIC50: −log10 of the molar value.
Observable: pIC50

Some solved entries appear below for comparison.
INSERT INTO measurements (molecule, endpoint_result) VALUES
  ('Cc1nc2ccc(Oc3ccc4ncc(-c5cnn(CC6CCNS(=O)(=O)C6)c5)nc4c3Cl)cc2[nH]1 (centres unmarked) [Compound 192]', '≤ 6.40'),
  ('Cc1nc2ccc(Oc3ccc4ncc(-c5cnn(CC6CC(F)(F)C6)c5)nc4c3-n3ccnc3)cc2[nH]1 [Compound 69]', '≤ 6.40'),
  ('Cc1nc2ccc(Oc3ccc4ncc(-c5cnn([C@H]6C[C@H](C(F)(F)F)C6)c5)nc4c3Cl)cc2[nH]1 [Compound 178]', '≤ 6.40');

Req: Reported pIC50, molecule Cc1nc2ccc(Oc3ccc4ncc(-c5cnn(CC6(O)CCC6)c5)nc4c3Cl)cc2[nH]1 [Compound 146] : ____
Resp: ≤ 6.40

Req: Reported pIC50, molecule Cc1nc2ccc(Oc3ccc4ncc(-c5cnn(C(C)(C)CC#N)c5)nc4c3Cl)cc2[nH]1 [Compound 255] : ____
Resp: ≤ 6.40

Req: Reported pIC50, molecule Cc1nc2ccc(Oc3ccc4ncc(-c5cnn(CC6CC(F)(F)C6)c5)nc4c3Cl)cc2[nH]1 [Compound 387] : ____
Resp: ≤ 6.40

Req: Reported pIC50, molecule Cc1nc2ccc(Oc3ccc4ncc(-c5cnn(CC6CC(F)(F)C6)c5)nc4c3C3=CCOCC3)cc2[nH]1 [Compound 100] : ____
Resp: 6.40 to 7.00

Req: Reported pIC50, molecule Cc1nc2ccc(Oc3ccc4ncc(-c5cnn(CC(O)C(F)(F)F)c5)nc4c3Cl)c(F)c2[nH]1 (centres unmarked) [Compound 144] : ____
Resp: ≤ 6.40

Req: Reported pIC50, molecule Cc1nc2ccc(Oc3ccc4ncc(-c5cnn(CC6CC(F)(F)C6)c5)nc4c3C3=CC(C)(C)OC3(C)C)c(F)c2[nH]1 [Compound 88] : ____
Resp: 6.40 to 7.00

Req: Reported pIC50, molecule Cc1nc2cc(Oc3ccc4ncc(-c5cnn(CC6CC(F)(F)C6)c5)nc4c3C=O)ccc2[nH]1 [Compound 158] : ____
Resp: ≤ 6.40

Req: Reported pIC50, molecule COC1CN([C@H]2C[C@@H](n3cc(-c4cnc5ccc(Oc6ccc7nc(C)[nH]c7c6)c(Cl)c5n4)cn3)C2)C1 [Compound 201] : ____
Resp: ≤ 6.40

Req: Reported pIC50, molecule Cc1nc2ccc(Oc3ccc4ncc(-c5cnn(CCN6CCC6)c5)nc4c3Cl)cc2[nH]1 [Compound 239] : ____
Resp: ≤ 6.40

Req: Reported pIC50, molecule Cc1nc2ccc(Oc3ccc4ncc(-c5cnn(CC6(O)CC6)c5)nc4c3Cl)cc2[nH]1 [Compound 259] : ____
Resp: ≤ 6.40

Req: Reported pIC50, molecule CCS(=O)(=O)N1CC(n2cc(-c3cnc4ccc(Oc5ccc6nc(C)[nH]c6c5)c(Cl)c4n3)cn2)C1 [Compound 372] : ____
Resp: ≤ 6.40

Req: Reported pIC50, molecule Cc1nc2ccc(Oc3ccc4ncc(-c5cnn(C6CCN(CC(F)(F)F)C7(CC7)C6)c5)nc4c3Cl)c(F)c2[nH]1 (centres unmarked) [Compound 121] : ____
Resp: ≤ 6.40

Req: Reported pIC50, molecule Cc1nc2ccc(Oc3ccc4ncc(-c5cnn(CCN6CCC(O)C6)c5)nc4c3Cl)cc2[nH]1 (centres unmarked) [Compound 267] : ____
Resp: ≤ 6.40

Req: Reported pIC50, molecule Cc1nc2ccc(Oc3ccc4ncc(-c5cnn(C[C@@H]6CCN(C)C[C@H]6F)c5)nc4c3Cl)cc2[nH]1 [Compound 367] : ____
Resp: 6.40 to 7.00

----------
- Tested on: DMS-114 (FGFR1 overexpression) cells
- Test Details: cell proliferation assay (CellTiterGlo), DMS-114 cells
- Type: cell-based
- Condition Context: Homo sapiens, DMS-114, 72 h
Item-by-item account of IC50

Some solved entries appear below for comparison.
INSERT INTO results (molecule, observable, endpoint_result) VALUES
  ('Cc1nc2ccc(Oc3ccc4ncc(-c5cnn(C6CC(N7CC(F)(F)C7)C6)c5)nc4c3Cl)cc2[nH]1 (centres unmarked)', 'IC50', '100 to 400 nM'),
  ('CSC1CCC(Cn2cc(-c3cnc4ccc(Oc5ccc6nc(C)[nH]c6c5)c(Cl)c4n3)cn2)CC1 (centres unmarked)', 'IC50', '≥ 400 nM');

Req: Reported IC50, molecule `Cc1nc2ccc(Oc3ccc4ncc(-c5cnn(C6(CCO)CCNCC6)c5)nc4c3Cl)cc2[nH]1` : ____
Resp: ≥ 400 nM

Req: Reported IC50, molecule Cc1nc2ccc(Oc3ccc4ncc(-c5cnn(C6CCN(S(C)(=N)=O)CC6)c5)nc4c3Cl)cc2[nH]1 (centres unmarked) : ____
Resp: 100 to 400 nM

Req: Reported IC50, molecule `CC(=O)NC1(Cn2cc(-c3cnc4ccc(Oc5ccc6nc(C)[nH]c6c5)c(Cl)c4n3)cn2)CC1` : ____
Resp: ≥ 400 nM

Req: Reported IC50, molecule `Cc1nc2ccc(Oc3ccc4ncc(-c5cnn(CC6CCN(C)CC6)c5)nc4c3C#N)cc2[nH]1` : ____
Resp: 100 to 400 nM

Req: Reported IC50, molecule `Cc1nc2ccc(Oc3ccc4ncc(-c5cnn(C6CCN(C(=O)N7CCC7)CC6)c5)nc4c3Cl)cc2[nH]1` : ____
Resp: ≥ 400 nM

Req: Reported IC50, molecule `Cc1nc2ccc(Oc3ccc4ncc(-c5cnn(CC(=O)NCC(C)(C)NC=O)c5)nc4c3Cl)cc2[nH]1` : ____
Resp: ≥ 400 nM

----------
- Test system: DMS-114 (FGFR1 overexpression) cells
- Test Details: cell proliferation assay (CellTiterGlo), DMS-114 cells
- Assay type: cell-based
- Condition Context: Homo sapiens, DMS-114, 72 h
Observable: IC50

Some solved entries appear below for comparison.
INSERT INTO measurements (compound, endpoint_result) VALUES
  ('Cc1nc2ccc(Oc3ccc4ncc(-c5cnn(C6CC7CC6CN7C(C)C)c5)nc4c3Cl)cc2[nH]1 (stereo not shown)', '≥ 400 nM'),
  ('Cc1nc2ccc(Oc3ccc4ncc(-c5cnn([C@H]6C[C@H](O)C6)c5)nc4c3Cl)cc2[nH]1', '≥ 400 nM'),
  ('Cc1nc2ccc(Oc3ccc4ncc(-c5cnn(C(C)(C)C6CC(O)C6)c5)nc4c3Cl)cc2[nH]1 (stereo not shown)', '100 to 400 nM'),
  ('Cc1nc2ccc(Oc3ccc4ncc(-c5cnn(C6CCN(c7ccccn7)CC6)c5)nc4c3Cl)cc2[nH]1', '≥ 400 nM'),
  ('Cc1nc2ccc(Oc3ccc4ncc(-c5cnn([C@H]6CCN(CC(F)(F)F)C[C@@H]6F)c5)nc4c3Cl)cc2[nH]1', '≥ 400 nM');

Req: Reported IC50, compound `Cc1nc2ccc(Oc3ccc4ncc(-c5cnn(C6CCN(CCO)CC6)c5)nc4c3Cl)cc2[nH]1` : ____
Resp: ≥ 400 nM

Req: Reported IC50, compound `Cc1nc2ccc(Oc3ccc4ncc(-c5cnn(CC6OCCCO6)c5)nc4c3Cl)cc2[nH]1` : ____
Resp: ≥ 400 nM
